target: Beta-2 adrenergic receptor (Cavia porcellus) (UniProt Q8K4Z4); settings: Trachea
Sequence (Q8K4Z4 whole entry, looked up): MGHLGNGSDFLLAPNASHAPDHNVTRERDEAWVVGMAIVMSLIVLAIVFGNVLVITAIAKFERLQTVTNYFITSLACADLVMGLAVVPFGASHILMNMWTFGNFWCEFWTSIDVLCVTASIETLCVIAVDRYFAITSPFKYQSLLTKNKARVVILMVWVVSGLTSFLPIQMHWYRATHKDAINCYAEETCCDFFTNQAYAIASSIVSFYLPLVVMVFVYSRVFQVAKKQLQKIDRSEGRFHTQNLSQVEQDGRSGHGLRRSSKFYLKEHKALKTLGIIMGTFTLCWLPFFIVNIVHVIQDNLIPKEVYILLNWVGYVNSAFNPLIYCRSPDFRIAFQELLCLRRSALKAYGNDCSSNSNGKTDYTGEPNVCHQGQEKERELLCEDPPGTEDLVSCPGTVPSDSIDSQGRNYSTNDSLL
Description: Beta-2-adrenoceptor potency was determined in rings of guinea-pig isolated trachea
experimentalReadout: p[A]50

CC(C)(CNCCc1ccc(O)c2nc(O)sc12)CSCCOCCc1ccccc1N 7.13
Oc1nc2c(O)ccc(CCNCCCCCCNCC(F)(F)c3ccccc3)c2s1 6.84
O=S(=O)(CCOCCc1ccccc1)NCCCNCCc1ccc(O)c2nc(O)sc12 7.51
O=c1[nH]c2c(O)ccc(CCNCCS(=O)(=O)CCCOCCc3ccccc3)c2s1 8.09
O=S(=O)(CCCNCCc1ccc(O)c2nc(O)sc12)CCOCCOc1ccccc1 7.44
O=S(=O)(CCNCCc1ccc(O)c2nc(O)sc12)NCCOCCc1ccccc1 6.48
O=C(CCOCCc1ccccc1)NCCNCCc1ccc(O)c2nc(O)sc12 9.27
Oc1ccc(CCOCCCCCCNCCc2ccc(O)c3nc(O)sc23)cc1 8.81

====

experiment: physchem
Description: Ionization constant (pKa)
experimentalReadout: pKa

Recorded pKa, per entry:
O=S(=O)(CCCNCCc1ccc(O)c2nc(O)sc12)CCOCCCc1ccccc1 > 8
Oc1nc2c(O)ccc(CCNCCNCCCOCCc3ccccc3)c2s1 > 8
Oc1nc2c(O)ccc(CCNCCCSCCCOCCc3ccccc3)c2s1 > 8
Nc1ccc(CCOCCCCCCNCCc2ccc(O)c3nc(O)sc23)cc1 > 8
CN(CCCOCCOCCc1ccccc1)CCc1ccc(O)c2nc(O)sc12 > 8
Oc1nc2c(O)ccc(CCNCCCCCCNCC(F)(F)c3ccccc3)c2s1 > 8

## Input If you can, please state the reported pKa value of "CCCN(CCCOCCOCCc1ccccc1)CCc1ccc(O)c2nc(O)sc12" .
## Output > 8

## Input If you can, please state the reported pKa value of "O=S(=O)(CCCOCCc1nccs1)CCNCCc1ccc(O)c2nc(O)sc12" .
## Output < 8

## Input If you can, please state the reported pKa value of "O=S(=O)(CCCOCCc1ccc(NS(=O)(=O)c2ccccc2)cc1)CCNCCc1ccc(O)c2nc(O)sc12" .
## Output < 8

## Input If you can, please state the reported pKa value of "O=S(=O)(CCOCCc1ccccc1)NCCCNCCc1ccc(O)c2nc(O)sc12" .
## Output > 8

====

assay: physchem; conditions: octanol/water, pH 7.4, logD
experimentalReadout: logD

Recorded logD, per entry:
Oc1nc2c(O)ccc(CCNCCOCCCOCCc3ccccc3)c2s1 2.06
O=S(=O)(CCCOCCc1nccs1)CCNCCc1ccc(O)c2nc(O)sc12 2.35
Cc1cnc(CCOCCCS(=O)(=O)CCNCCc2ccc(O)c3nc(O)sc23)s1 2.87
O=S(=O)(CCCNCCc1ccc(O)c2nc(O)sc12)NCCOCCc1cccc(Cl)c1 1.92
O=S(=O)(CCCNCCc1ccc(O)c2nc(O)sc12)CCOCCc1ccccc1 1.37

[a] C[C@@H](Cc1ccccc1)OCCCS(=O)(=O)CCNCCc1ccc(O)c2nc(O)sc12
[b] O=S(=O)(CCCOCCc1ccc(Br)cc1)CCNCCc1ccc(O)c2nc(O)sc12
## Input Pick one: a or b . Which one has the lower reported logD? Let me know the label of the one you choose.
## Output a
(a: 1.81, b: 3.36)

[I] O=[N+]([O-])c1ccc(CCOCCCSCCNCCc2ccc(O)c3nc(O)sc23)cc1
[II] O=c1[nH]c2c(O)ccc(CCNCCCS(=O)(=O)CCCOCCc3ccccc3)c2s1
## Input Short answer wanted: higher logD, I or II ? Let me know the label of the one you choose.
## Output I

[A] O=S(=O)(CCNCCc1ccc(O)c2nc(O)sc12)NCCOCCc1ccccc1
[B] O=C(CCCCCNCCc1ccc(O)c2nc(O)sc12)NCCc1ccccc1
## Input Pick one: A or B . Which one has the lower reported logD? Let me know the label of the one you choose.
## Output B

[1] Oc1nc2c(O)ccc(CCNCCSCCCOCCCc3ccccc3)c2s1
[2] Oc1nc2c(O)ccc(CCNCCCSCCOCCOc3ccccc3)c2s1
[3] CS(=O)(=O)Nc1ccc(CCOCCCS(=O)(=O)CCNCCc2ccc(O)c3nc(O)sc23)cc1
## Input Hello, I need these entries ordered by logD, highest reading first. Thanks! The reply should contain the labels ordered as requested.
## Output 1, 2, 3
(1: 3.61, 2: 2.11, 3: 1.34)
